// provenance: the RNAGym collection of RNA variant scans (doi:10.1093/nar/gkz1192)

B1: CPEB3 Ribozyme (parent)
chain: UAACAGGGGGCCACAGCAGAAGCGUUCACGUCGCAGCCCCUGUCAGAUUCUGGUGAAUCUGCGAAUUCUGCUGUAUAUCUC

Variants of: B1
Test: self-cleavage, relative activity (ratio to wild type); higher = more cleavage; in vitro, sequencing
property_label: self-cleavage
// response body must contain only the number

[[record]]
variant_designation = "U26A G73A"
property_label = "self-cleavage"
measurement = 0.96

[[record]]
variant_designation = "G10U A56U"
property_label = "self-cleavage"
measurement = 0.08


For the variant A3C A20G , give its reported self-cleavage.
1.05
